B1: FBF1 (parent)
chain: QLQCSPAELQAELLHSQARLAELE

Variants of: B1
Test: protein stability index of a GFP-peptide fusion (GPS, HEK-293T) (PSI 1-6); higher = more stable;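 also: lentivirally expressed fusions sorted by FACS into six bins by GFP to DsRed ratio, PSI derived from sequencing read proportions per bin multiplied by bin number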
Conditions: c terminus: a fixed tail appended
Reported protein stability index values are given for each entry in this list.

SEQUENCE_CHANGE | protein stability index
A18P | 3.96
S16K | 3.9
L20W | 4.22
E22A | 2.83
L2K | 2.89
C4S | 3.82
S16M | 3.33
L13Q | 5.08
A18W | 2.18
E22F | 2.25
L20F | 3.37
E8A | 1.66
L9Y | 4.64
P6F | 2.28
Q10V | 2.56
L9R | 4.51
E22L | 1.98
C4P | 3.65
